A compilation of Ki values for Matrix metalloproteinase-9 (Homo sapiens, UniProt P14780) from the published literature.

Here is how some compounds turned out for Ki.
Recorded Ki for CC(=O)N[C@H](C(=O)NO)[C@H]1CCN(c2ccc(OCc3cc(C)nc4ccccc34)cc2)C1=O , please?
> 2000 nM

# repeat for CC(C)(C)c1nc2ccccc2n1Cc1ccc(C(=O)N[C@@H]2C[C@@]3(CCCO3)C[C@@H]2C(=O)NO)cc1
> 2130 nM

Further, for Cc1cc(COc2ccc(NC(=O)[C@H]3[C@H](C(=O)NO)CCCN3C)cc2)c2ccccc2n1 ?
> 2130 nM

Next:
Can you share its Ki? I mean this compound: Cc1cc(COc2ccc(S(=O)(=O)CC3CN(C)CCC3C(=O)NO)cc2)c2ccccc2n1 (centres undefined)
> 2100 nM
